# Test System: glycine binding site of the NMDA receptor channel (Rattus norvegicus, UniProt P35439)
# Construct: from tissue; host or cells: rat brain cortex and hippocampus membrane homogenate
# Assay Remarks: Receptor binding, displacement of (3H)-MDL 105.519 on rat cerebral membrane homogenates
# Condition Notes: 10 μmol/l test substance; 1 nmol/l (3H)-MDL 105.519; read-out: Displacement (%, 10 μmol/l) of radioactive ligand from specific binding
Can you tell me inhibition at 10 µM for the items I'm about to list?

Compound: CCOC(=O)C1CC(c2ccccc2Br)c2c(Cl)cc(Cl)cc2N1 (stereo not shown)
Recorded Measurement: 46%
--
Compound: CCOC(=O)C1CC(c2ccc(OCc3ccccc3)c(OC)c2)c2cc(C(C)(C)C)ccc2N1 (stereo not shown)
Recorded Measurement: 29%
--
Compound: CCOC(=O)C1CC(c2cccc(F)c2)c2c(Cl)cc(Cl)cc2N1 (stereo not shown)
Recorded Measurement: 35%
--
Compound: CCOC(=O)C1Nc2ccc(C#N)cc2C2c3ccccc3CC12 (stereo not shown)
Recorded Measurement: 34%
--
Compound: Cc1ccc(C2CC(C(=O)O)Nc3cc(Cl)cc(Cl)c32)cc1 (stereo not shown)
Recorded Measurement: 61%

Quick request: inhibition at 10 µM for each listed item, please.
1. CCOC(=O)C1CC(c2ccc(F)cc2)c2cc(Cl)ccc2N1 (stereo not shown)
2. O=C(O)C1CC(c2ccccc2F)c2c(Cl)cc(Cl)cc2N1 (stereo not shown)

Response:
21%
75%
